assay_system: hNav1.7 and the β1 subunit (Homo sapiens)
Construct: expressed in transfected cells
Sequence (Q15858 whole entry): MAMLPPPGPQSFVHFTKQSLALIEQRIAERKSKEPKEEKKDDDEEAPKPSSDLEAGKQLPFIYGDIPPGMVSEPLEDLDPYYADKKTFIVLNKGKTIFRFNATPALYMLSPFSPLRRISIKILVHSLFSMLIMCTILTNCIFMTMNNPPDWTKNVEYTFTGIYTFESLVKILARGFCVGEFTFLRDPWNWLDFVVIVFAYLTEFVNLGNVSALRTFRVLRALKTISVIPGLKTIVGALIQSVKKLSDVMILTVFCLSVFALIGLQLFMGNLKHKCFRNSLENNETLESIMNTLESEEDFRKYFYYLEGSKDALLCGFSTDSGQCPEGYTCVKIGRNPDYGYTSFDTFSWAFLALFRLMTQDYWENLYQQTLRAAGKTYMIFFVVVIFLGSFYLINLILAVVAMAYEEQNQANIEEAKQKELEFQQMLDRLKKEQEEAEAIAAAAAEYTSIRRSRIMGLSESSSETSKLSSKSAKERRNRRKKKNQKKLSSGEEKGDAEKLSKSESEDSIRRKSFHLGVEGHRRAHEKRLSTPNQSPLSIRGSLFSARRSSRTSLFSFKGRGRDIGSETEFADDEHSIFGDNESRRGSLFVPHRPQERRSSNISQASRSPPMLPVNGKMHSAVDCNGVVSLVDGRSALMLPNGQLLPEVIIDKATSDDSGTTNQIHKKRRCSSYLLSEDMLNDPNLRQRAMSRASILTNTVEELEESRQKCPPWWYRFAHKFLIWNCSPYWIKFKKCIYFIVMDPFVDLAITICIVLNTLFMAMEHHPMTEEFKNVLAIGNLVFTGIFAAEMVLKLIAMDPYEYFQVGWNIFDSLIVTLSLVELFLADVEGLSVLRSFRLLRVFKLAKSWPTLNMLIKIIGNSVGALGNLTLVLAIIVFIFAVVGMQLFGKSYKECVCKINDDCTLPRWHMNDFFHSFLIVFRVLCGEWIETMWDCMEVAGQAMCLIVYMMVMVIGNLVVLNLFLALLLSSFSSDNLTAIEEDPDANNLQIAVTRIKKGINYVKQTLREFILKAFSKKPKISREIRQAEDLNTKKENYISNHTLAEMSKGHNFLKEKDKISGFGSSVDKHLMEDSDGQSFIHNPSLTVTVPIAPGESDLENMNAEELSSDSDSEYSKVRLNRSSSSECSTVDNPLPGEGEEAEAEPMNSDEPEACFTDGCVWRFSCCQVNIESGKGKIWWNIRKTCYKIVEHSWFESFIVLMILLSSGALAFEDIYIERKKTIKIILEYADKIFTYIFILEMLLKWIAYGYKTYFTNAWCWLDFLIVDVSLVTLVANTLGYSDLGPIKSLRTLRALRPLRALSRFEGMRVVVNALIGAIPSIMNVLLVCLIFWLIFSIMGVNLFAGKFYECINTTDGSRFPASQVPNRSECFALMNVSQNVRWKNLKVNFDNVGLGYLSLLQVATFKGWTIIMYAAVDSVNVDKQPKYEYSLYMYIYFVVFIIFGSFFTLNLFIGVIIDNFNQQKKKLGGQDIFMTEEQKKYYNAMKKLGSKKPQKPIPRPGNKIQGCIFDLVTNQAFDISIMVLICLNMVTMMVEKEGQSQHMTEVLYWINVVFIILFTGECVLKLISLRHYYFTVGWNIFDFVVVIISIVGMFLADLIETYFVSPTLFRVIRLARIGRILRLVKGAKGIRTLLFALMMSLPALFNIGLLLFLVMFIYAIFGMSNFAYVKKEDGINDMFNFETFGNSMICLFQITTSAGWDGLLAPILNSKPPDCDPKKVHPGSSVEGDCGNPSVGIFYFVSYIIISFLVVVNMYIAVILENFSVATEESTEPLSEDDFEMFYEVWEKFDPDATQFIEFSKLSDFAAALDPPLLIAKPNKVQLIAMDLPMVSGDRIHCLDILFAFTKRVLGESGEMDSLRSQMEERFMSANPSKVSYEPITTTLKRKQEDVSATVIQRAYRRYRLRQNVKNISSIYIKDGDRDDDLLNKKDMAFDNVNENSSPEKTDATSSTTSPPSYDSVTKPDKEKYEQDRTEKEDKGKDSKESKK
Sequence (Q07699 19-218 partner): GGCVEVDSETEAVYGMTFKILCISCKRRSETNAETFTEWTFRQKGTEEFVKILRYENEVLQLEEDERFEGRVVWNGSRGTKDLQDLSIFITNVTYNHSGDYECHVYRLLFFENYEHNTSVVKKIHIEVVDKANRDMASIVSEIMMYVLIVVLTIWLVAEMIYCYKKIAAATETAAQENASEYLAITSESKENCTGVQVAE
measurement_notes: Tritiated compound competitive binding to membranes from cells heterologously expressing hNav1.7 and the β1 subunit (LBA)
condition_description: competition with 100 pM [3H]compound, 18 h, room temperature; IC50 by 4 parameter logistic model
readout_type: Nav1.7 (LBA) (µM)

Would you please look over these solved cases?
compound	Nav1.7 (LBA) [µM]
Cn1nccc1[C@@H]1CCCCN1[C@H]1CCOc2cc(S(=O)(=O)Nc3ncns3)ccc21	0.00609
O=S(=O)(Nc1ncns1)c1cc(F)c(CN2CC[C@@H](F)C[C@@H]2c2ccccc2)cc1F (single isomer, unassigned)	1.71

(A) O=S(=O)(Nc1ncns1)c1cc(F)c(CN2CC[C@H](F)C[C@H]2c2ccccc2)cc1F (single isomer, unassigned)
(B) O=S(=O)(Nc1nccs1)c1cc2c(cc1F)[C@H](N1CC[C@@H](C(F)(F)F)C[C@H]1c1cn[nH]c1)CCO2
(C) Nc1cccc([C@@H]2C[C@H](C(F)(F)F)CCN2[C@H]2CCOc3cc(S(=O)(=O)Nc4nccs4)c(F)cc32)n1
(D) O=S(=O)(Nc1nccs1)c1cc2c(cc1F)[C@@H](N1CCCC[C@H]1c1ccccc1)CCO2 (single isomer, unassigned)
(E) N#C[C@H]1CCN([C@@H]2CCOc3cc(S(=O)(=O)Nc4ncns4)ccc32)[C@@H](c2ccc(F)cc2)C1
Incoming: Ordering criterion: Nav1.7 (LBA); begin with the maximum. Write the labels out in the order the request specifies.
Outgoing: A, E, B, D, C
(A: 0.374 µM, E: 0.158 µM, B: 0.11 µM, D: 0.00862 µM, C: 0.000515 µM)

(A) O=S(=O)(Nc1ncns1)c1ccc2c(c1)OCC[C@@H]2N1CC[C@@H](C(F)(F)F)C[C@H]1c1ccc(F)c(Cl)c1
(B) O=S(=O)(Nc1nccs1)c1cc2c(cc1F)[C@H](N1CC[C@@H](C(F)(F)F)C[C@H]1c1cccnc1)CCO2
(C) C[C@H]1CCCN(Cc2cc(F)c(S(=O)(=O)Nc3ncns3)cc2F)[C@H]1c1ccccc1 (single isomer, unassigned)
(D) N#CC1CC12CCN([C@H]1CCOc3cc(S(=O)(=O)Nc4ncns4)ccc31)CC2 (stereo partly shown)
(E) O=S(=O)(Nc1ncns1)c1ccc2c(c1)OCC[C@@H]2N1CCNC[C@H]1c1ccc(F)cc1
Incoming: Output the entries ranked by Nav1.7 (LBA) from maximum down to minimum. Would you mind listing the labels in the order requested?
Outgoing: D, C, E, B, A
